Experiment: in vitro
Conditions: cynomolgus monkey, 20% fecal homogenate (supernatant), anaerobic, pH 6.8
Bridge positions count the residues as written; N and C are the ends. Square brackets hold non-standard residues; d marks the D form. Peptide text beside a SMILES is read from it. Trp(7-Me) = Cc1cccc2c(C[C@H](N)C(=O)O)c[nH]c12; 2Nal = N[C@@H](Cc1ccc2ccccc2c1)C(=O)O; AEF = NCCOc1ccc(C[C@H](N)C(=O)O)cc1; Cit = NC(=O)NCCC[C@H](N)C(=O)O; Pen = CC(C)(S)[C@H](N)C(=O)O; αMeK = C[C@](N)(CCCCN)C(=O)O
As shown below, each of these molecules has a reported half-life at 20 μM value.
metric-name: half-life at 20 μM

* CC(=O)NCCCC[C@H](NC(=O)[C@](C)(CC(C)C)NC(=O)[C@H](Cc1ccc2ccccc2c1)NC(=O)[C@H](Cc1ccc(OCCN)cc1)NC(=O)[C@H]1NC(=O)[C@H](CCC(N)=O)NC(=O)[C@H](Cc2c[nH]c3c(C)cccc23)NC(=O)[C@H]([C@@H](C)O)NC(=O)[C@H](CC(N)=O)NC(=O)[C@@H](NC(C)=O)C(C)(C)SSC1(C)C)C(=O)N(C)CC(=O)NCCC(N)=O [compound 224] | > 24 h
* CC(=O)NCCCC[C@@H]1NC(=O)[C@H](Cc2c[nH]c3c(C)cccc23)NC(=O)[C@H]([C@@H](C)O)NC(=O)[C@H](CC(N)=O)NC(=O)[C@@H](NC(C)=O)C(C)(C)SSC(C)(C)[C@@H](C(=O)N[C@@H](Cc2ccc(OCCN)cc2)C(=O)N[C@@H](Cc2ccc3ccccc3c2)C(=O)N[C@@](C)(CCCCN)C(=O)N[C@@H](CCCCNC(C)=O)C(=O)N[C@@H](CC(N)=O)C(=O)N[C@H](CCCCN)C(N)=O)NC1=O [SEQ ID No. 252] | > 24 h
* CC(=O)NCCCC[C@H](NC(=O)[C@](C)(CCCCN)NC(=O)[C@H](Cc1ccc2ccccc2c1)NC(=O)[C@H](Cc1ccc(OCCN)cc1)NC(=O)[C@H]1NC(=O)[C@H](CCCNC(N)=O)NC(=O)[C@H](Cc2c[nH]c3c(C)cccc23)NC(=O)[C@H]([C@@H](C)O)NC(=O)[C@H](CC(N)=O)NC(=O)[C@@H](NC(C)=O)C(C)(C)SSC1(C)C)C(=O)N[C@@H](CC(N)=O)C(=O)N[C@@H](Cc1ccc(O)cc1)C(N)=O [compound 266] (Ac-[Pen]NT[Trp(7-Me)][Cit][Pen][AEF][2Nal][αMeK]K(Ac)NY-NH2; disulfide 1-6) | 7 h
* CC(=O)N[C@@H]1C(=O)N[C@@H](CC(N)=O)C(=O)N[C@@H]([C@@H](C)O)C(=O)N[C@@H](Cc2c[nH]c3c(C)cccc23)C(=O)N[C@@H](CCC(N)=O)C(=O)N[C@H](C(=O)N[C@@H](Cc2ccc(OCCN)cc2)C(=O)N[C@@H](Cc2ccc3ccccc3c2)C(=O)N[C@@](C)(CCCCN)C(=O)NC(C)(C)C(=O)N[C@@H](CC(N)=O)C(=O)NCCC(N)=O)C(C)(C)SSC1(C)C [compound 236] | > 24 h
* CC(=O)NCCCC[C@@H]1NC(=O)[C@H](Cc2c[nH]c3c(C)cccc23)NC(=O)[C@H]([C@@H](C)O)NC(=O)[C@H](CC(N)=O)NC(=O)[C@@H](NC(C)=O)C(C)(C)SSC(C)(C)[C@@H](C(=O)N[C@@H](Cc2ccc(OCCN)cc2)C(=O)N[C@@H](Cc2ccc3ccccc3c2)C(=O)N[C@@](C)(CCCCN)C(=O)N[C@@H](CCCCNC(C)=O)C(=O)N[C@@H](CC(N)=O)C(=O)N[C@@H](C(N)=O)C(C)C)NC1=O [compound 251] | > 24 h
* CC(=O)N[C@@H]1C(=O)N[C@@H](CC(N)=O)C(=O)N[C@@H]([C@@H](C)O)C(=O)N[C@@H](Cc2c[nH]c3c(C)cccc23)C(=O)N[C@@H](CCC(N)=O)C(=O)N[C@H](C(=O)N[C@@H](Cc2ccc(OCCN)cc2)C(=O)N[C@@H](Cc2ccc3ccccc3c2)C(=O)N[C@@](C)(CC(C)C)C(=O)NCC(=O)N2CCC[C@@H]2C(=O)NCCC(N)=O)C(C)(C)SSC1(C)C [compound 220] | 21 h
* CC(=O)NCCCC[C@H](NC(=O)[C@](C)(CC(C)C)NC(=O)[C@H](Cc1ccc2ccccc2c1)NC(=O)[C@H](Cc1ccc(OCCN)cc1)NC(=O)[C@H]1NC(=O)[C@H](CCC(N)=O)NC(=O)[C@H](Cc2c[nH]c3c(C)cccc23)NC(=O)[C@H]([C@@H](C)O)NC(=O)[C@H](CC(N)=O)NC(=O)[C@@H](NC(C)=O)C(C)(C)SSC1(C)C)C(=O)N[C@@H](CO)C(=O)NCCC(N)=O [compound 221] | > 24 h
* COc1cccc2[nH]cc(C[C@@H]3NC(=O)[C@H]([C@@H](C)O)NC(=O)[C@H](CC(N)=O)NC(=O)[C@@H](NC(C)=O)C(C)(C)SSC(C)(C)[C@@H](C(=O)N[C@@H](Cc4ccc(OCCN)cc4)C(=O)N[C@@H](Cc4ccc5ccccc5c4)C(=O)N[C@@](C)(CCCCN)C(=O)N[C@@H](CCCCNC(C)=O)C(=O)N[C@@H](CC(N)=O)C(=O)NCCC(N)=O)NC(=O)[C@H](CCC(N)=O)NC3=O)c12 [compound 229] | 7 h
* CC(=O)NCCCC[C@H](NC(=O)[C@](C)(CCCCN)NC(=O)[C@H](Cc1ccc2ccccc2c1)NC(=O)[C@H](Cc1ccc(OCCN)cc1)NC(=O)[C@H]1NC(=O)[C@H](CCCNC(N)=O)NC(=O)[C@H](Cc2c[nH]c3c(C)cccc23)NC(=O)[C@H]([C@@H](C)O)NC(=O)[C@H](CC(N)=O)NC(=O)[C@@H](NC(C)=O)C(C)(C)SSC1(C)C)C(=O)N[C@@H](CC(N)=O)C(=O)N[C@H](CO)C(N)=O [compound 261] (Ac-[Pen]NT[Trp(7-Me)][Cit][Pen][AEF][2Nal][αMeK]K(Ac)N[dS]-NH2; disulfide 1-6) | 4 h

====

Entries annotated with measured half-life at 20 μM
Experiment: in vitro
Conditions: human, 20% fecal homogenate (supernatant), anaerobic, pH 6.8
metric-name: half-life at 20 μM

* CC(=O)N[C@@H]1C(=O)N[C@@H](CC(N)=O)C(=O)N[C@@H]([C@@H](C)O)C(=O)N[C@@H](Cc2c[nH]c3c(C)cccc23)C(=O)N[C@@H](CCC(N)=O)C(=O)N[C@H](C(=O)N[C@@H](Cc2ccc(OCCN)cc2)C(=O)N[C@@H](Cc2ccc3ccccc3c2)C(=O)N[C@@](C)(CCCCN)C(=O)N[C@@H](CCC(=O)O)C(=O)N[C@@H](CC(N)=O)C(=O)NCCC(N)=O)C(C)(C)SSC1(C)C [compound 282] | > 24 h
* CC(=O)NCCCC[C@H](NC(=O)[C@](C)(CC(C)C)NC(=O)[C@H](Cc1ccc2ccccc2c1)NC(=O)[C@H](Cc1ccc(OCCN)cc1)NC(=O)[C@H]1NC(=O)[C@](C)(CCCCN)NC(=O)[C@H](Cc2c[nH]c3c(C)cccc23)NC(=O)[C@H]([C@@H](C)O)NC(=O)[C@H](CC(N)=O)NC(=O)[C@@H](NC(C)=O)C(C)(C)SSC1(C)C)C(=O)N[C@@H](CC(N)=O)C(=O)NCCC(N)=O [compound 234] | > 24 h
* CC(=O)NCCCC[C@H](NC(=O)[C@](C)(CC(C)C)NC(=O)[C@H](Cc1ccc2ccccc2c1)NC(=O)[C@H](Cc1ccc(OCCN)cc1)NC(=O)[C@H]1NC(=O)[C@H](CCC(N)=O)NC(=O)[C@H](Cc2c[nH]c3c(C)cccc23)NC(=O)[C@H]([C@@H](C)O)NC(=O)[C@H](CC(N)=O)NC(=O)[C@@H](NC(C)=O)C(C)(C)SSC1(C)C)C(=O)N1CCC[C@@H]1C(=O)NCCC(N)=O [compound 212] | > 24 h

====

The reader will find reported pIC50 values listed item by item below.
Target: IL-23R (Homo sapiens)
Sequence (Q5VWK5 24-629): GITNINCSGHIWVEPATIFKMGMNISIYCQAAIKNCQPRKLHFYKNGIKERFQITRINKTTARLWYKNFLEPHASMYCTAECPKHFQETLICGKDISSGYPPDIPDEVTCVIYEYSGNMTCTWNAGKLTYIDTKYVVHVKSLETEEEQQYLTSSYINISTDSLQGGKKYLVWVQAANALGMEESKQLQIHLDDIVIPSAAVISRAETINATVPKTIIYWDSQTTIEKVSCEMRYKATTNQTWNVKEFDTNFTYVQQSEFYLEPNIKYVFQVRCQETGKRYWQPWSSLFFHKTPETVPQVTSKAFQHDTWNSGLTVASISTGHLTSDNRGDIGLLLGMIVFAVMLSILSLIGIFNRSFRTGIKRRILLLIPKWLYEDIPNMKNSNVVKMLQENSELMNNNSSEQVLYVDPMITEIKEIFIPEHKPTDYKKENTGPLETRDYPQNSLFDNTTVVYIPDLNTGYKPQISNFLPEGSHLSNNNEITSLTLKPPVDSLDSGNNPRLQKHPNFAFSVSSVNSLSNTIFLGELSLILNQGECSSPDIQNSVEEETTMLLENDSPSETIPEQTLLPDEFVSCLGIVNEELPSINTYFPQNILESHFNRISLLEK
Experiment: DB cells IL23R pSTAT3 cell assay (pStat3 HTRF)
Assay type: cell-based
Conditions: Table E3; DB cells, IL-23 0.5 nM, 30 minutes at 37° C.; read-out: pStat3 HTRF (IC50)
pIC50: −log10 of the molar value. Bridge positions count the residues as written; N and C are the ends. Square brackets hold non-standard residues; d marks the D form. Peptide text beside a SMILES is read from it. Trp(1-Me) = Cn1cc(C[C@H](N)C(=O)O)c2ccccc21; 2Nal = N[C@@H](Cc1ccc2ccccc2c1)C(=O)O; AEF = NCCOc1ccc(C[C@H](N)C(=O)O)cc1; Cit = NC(=O)NCCC[C@H](N)C(=O)O; Pen = CC(C)(S)[C@H](N)C(=O)O; αMeK = C[C@](N)(CCCCN)C(=O)O; βAla = NCCC(=O)O
metric-name: pIC50

• CC(=O)NCCCC[C@H](NC(=O)[C@](C)(CCCCN)NC(=O)[C@H](Cc1ccc2ccccc2c1)NC(=O)[C@H](Cc1ccc(OCCN)cc1)NC(=O)[C@H]1NC(=O)[C@H](CCC(N)=O)NC(=O)[C@H](Cc2c[nH]c3c(C)cccc23)NC(=O)[C@H]([C@@H](C)O)NC(=O)[C@H](CC(N)=O)NC(=O)[C@@H](NC(C)=O)C(C)(C)SSC1(C)C)C(=O)N[C@@H](CC(N)=O)C(=O)NCCC(N)=O [compound 267] = > 9.00
• CC(=O)NCCCC[C@H](NC(=O)[C@](C)(CCCCN)NC(=O)[C@H](Cc1ccc2ccccc2c1)NC(=O)[C@H](Cc1ccc(OCCN)cc1)NC(=O)[C@H]1NC(=O)[C@H](CCCCNC(=O)CCN)NC(=O)[C@H](Cc2c[nH]c3c(C)cccc23)NC(=O)[C@H]([C@@H](C)O)NC(=O)[C@H](CC(N)=O)NC(=O)[C@@H](NC(C)=O)C(C)(C)SSC1(C)C)C(=O)N[C@@H](CC(N)=O)C(=O)N[C@H](CC(C)C)C(N)=O = 8.00 to 9.00
• CC[C@H](C)[C@H](NC(=O)[C@H](CCCCNC(C)=O)NC(=O)[C@](C)(CC(C)C)NC(=O)[C@H](Cc1ccc2ccccc2c1)NC(=O)[C@H](Cc1ccc(OCCN)cc1)NC(=O)[C@H]1NC(=O)[C@H](CCC(N)=O)NC(=O)[C@H](Cc2c[nH]c3c(C)cccc23)NC(=O)[C@H]([C@@H](C)O)NC(=O)[C@H](CC(N)=O)NC(=O)[C@@H](NC(C)=O)C(C)(C)SSC1(C)C)C(=O)NCCC(N)=O = 7.00 to 8.00
• CC(=O)NCCCC[C@H](NC(=O)[C@](C)(CC(C)C)NC(=O)[C@H](Cc1ccc2ccccc2c1)NC(=O)[C@H](Cc1ccc(OCCN)cc1)NC(=O)[C@H]1NC(=O)[C@H](CCC(N)=O)NC(=O)[C@H](Cc2c[nH]c3c(C)cccc23)NC(=O)[C@H]([C@@H](C)O)NC(=O)[C@H](CC(N)=O)NC(=O)[C@@H](NC(C)=O)C(C)(C)SSC1(C)C)C(=O)N[C@@H](C)C(=O)NCCC(N)=O = 8.00 to 9.00
• CC(=O)NCCCC[C@H](NC(=O)[C@](C)(CCCCN)NC(=O)[C@H](Cc1ccc2ccccc2c1)NC(=O)[C@H](Cc1ccc(OCCN)cc1)NC(=O)[C@H]1NC(=O)[C@H](CCCNC(N)=O)NC(=O)[C@H](Cc2cn(C)c3ccccc23)NC(=O)[C@H]([C@@H](C)O)NC(=O)[C@H](CC(N)=O)NC(=O)[C@@H](NC(C)=O)C(C)(C)SSC1(C)C)C(=O)NCCC(=O)NCCC(N)=O [compound 280] (Ac-[Pen]NT[Trp(1-Me)][Cit][Pen][AEF][2Nal][αMeK]K(Ac)[βAla][βAla]-NH2; disulfide 1-6) = 7.00 to 8.00
